experiment: Tmax in nude BALB/c mouse serum at 8.0 mg/kg incubated up to 9 hrs, iv administered […] by LC-MS/MS analysis
Type: ADME, organism-based
measured_metric: Tmax (min)
Numbers only, in min.

Give the measured Tmax of CCc1c2c(nc3ccc(OCC(=O)N4CCCCC4)cc13)-c1cc3c(c(=O)n1C2)COC(=O)[C@]3(O)CC .
10.2

====

experiment: Solubility of compound in phosphate buffer at pH 7.4 incubated for 24 hrs under shaking condition by HPLC analysis
Type: physicochemical
measured_metric: solubility thermodynamic at 24 h

molecule="CCc1c2c(nc3ccc(O)cc13)-c1cc3c(c(=O)n1C2)COC(=O)[C@]3(O)CC [7-ETHYL-10-HYDROXYCAMPTOTHECIN]" value_reported="< 0.25 µg/mL"

// moving on: another record for solubility thermodynamic at 24 h
# get_value(readout='solubility thermodynamic at 24 h', item= CCc1c2c(nc3ccc(OCC(=O)N4CCCCC4)cc13)-c1cc3c(c(=O)n1C2)COC(=O)[C@]3(O)CC )
19.9 µg/mL
